Values compiled from ChEMBL document CHEMBL4665659.

# TARGET: Ephrin type-A receptor 1 (Homo sapiens, UniProt P21709)
# Sequence (P21709 whole entry): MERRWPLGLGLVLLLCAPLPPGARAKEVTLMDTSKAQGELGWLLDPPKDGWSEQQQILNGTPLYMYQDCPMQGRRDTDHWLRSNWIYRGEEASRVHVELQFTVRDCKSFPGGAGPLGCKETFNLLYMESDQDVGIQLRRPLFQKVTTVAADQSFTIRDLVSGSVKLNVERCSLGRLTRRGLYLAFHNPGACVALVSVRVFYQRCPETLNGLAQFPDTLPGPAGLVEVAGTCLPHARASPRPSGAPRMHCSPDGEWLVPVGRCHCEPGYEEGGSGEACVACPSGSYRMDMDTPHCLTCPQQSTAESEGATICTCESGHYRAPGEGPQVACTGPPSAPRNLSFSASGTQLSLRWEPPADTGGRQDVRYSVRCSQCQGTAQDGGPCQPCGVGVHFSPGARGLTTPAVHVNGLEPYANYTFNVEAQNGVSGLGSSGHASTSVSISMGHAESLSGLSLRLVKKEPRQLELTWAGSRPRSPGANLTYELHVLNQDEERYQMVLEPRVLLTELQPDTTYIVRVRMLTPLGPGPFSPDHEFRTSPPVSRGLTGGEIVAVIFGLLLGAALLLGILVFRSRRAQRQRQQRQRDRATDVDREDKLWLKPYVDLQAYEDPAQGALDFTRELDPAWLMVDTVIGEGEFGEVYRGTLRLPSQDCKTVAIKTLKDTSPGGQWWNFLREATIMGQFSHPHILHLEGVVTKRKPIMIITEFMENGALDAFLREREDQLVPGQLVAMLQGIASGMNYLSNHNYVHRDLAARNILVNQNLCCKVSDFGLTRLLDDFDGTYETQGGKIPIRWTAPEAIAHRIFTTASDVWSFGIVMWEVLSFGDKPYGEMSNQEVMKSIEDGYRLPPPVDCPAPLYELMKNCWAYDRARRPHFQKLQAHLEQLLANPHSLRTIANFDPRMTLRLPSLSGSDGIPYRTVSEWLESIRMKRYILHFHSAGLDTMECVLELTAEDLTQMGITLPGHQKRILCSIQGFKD
REPORTED METRIC: Kd (nM)
Express it in nM; write the number only.

Requested read-out Kd, target or system Ephrin type-A receptor 1 (Homo sapiens, UniProt P21709), entry COc1cc2nccc(Nc3cc(OC)c(OC)c(OC)c3)c2cc1OC 1300

====

Form: system (Ephrin type-B receptor 6 (Homo sapiens)), quantity (pKd), values below.
# pKd is unitless: minus log10 of the molar concentration; print number only

Requested read-out pKd, target or system Ephrin type-B receptor 6 (Homo sapiens), entry COc1cc(Nc2ccnc3ccc(Br)cc23)cc(OC)c1OC 6.15

Please provide the recorded pKd for COc1cc2nccc(Nc3cc(OC)c(OC)c(OC)c3)c2cc1OC , tested on Ephrin type-B receptor 6 (Homo sapiens). 6.89
